Listed below: growth, % of control values for each entry.
Experiment: qHTS profiling of the MIPE4 collection as inhibitors of Plasmodium falciparum (HB3) proliferation (AID 743347);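 note: plate controls were DMSO vehicle wells for no effect and artemisinin wells for full effect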
Conditions: P. falciparum HB3 in erythrocytes, SYBR Green DNA, 72 h; at 28.5 µM (top of the series) unless noted
measured-metric: growth, % of control (%)

molecule=CC(C)(OCc1nn(Cc2ccccc2)c2ccccc12)C(=O)O display_unit=% measured_value=104
molecule=CO[C@H]1/C=C\O[C@@]2(C)Oc3c(C)c(O)c4c(O)c(c5c(nc6cc(C)ccn65)c4c3C2=O)NC(=O)C(C)=CC=C[C@H](C)[C@H](O)[C@@H](C)[C@@H](O)[C@@H](C)[C@H](OC(C)=O)[C@H]1C display_unit=% measured_value=5.21
molecule=Cc1cnc(Nc2cccc(CN3CCOCC3)c2)nc1Nc1cccc(S(=O)(=O)NC(C)(C)C)c1 display_unit=% measured_value=7.02
molecule="OC(c1cc(C(F)(F)F)nc2c(C(F)(F)F)cccc12)C1CCCCN1 (centres undefined)" display_unit=% measured_value=61.8
molecule="CN1CC(=O)N2C(Cc3c([nH]c4ccccc34)[C@H]2c2ccc3c(c2)OCO3)C1=O (some centres undefined)" display_unit=% measured_value=11.5
molecule=CCC[C@@H](NC(=O)[C@@H]1[C@H]2CCC[C@@H]2CN1C(=O)[C@@H](NC(=O)[C@@H](NC(=O)c1cnccn1)C1CCCCC1)C(C)(C)C)C(=O)C(=O)NC1CC1 display_unit=% measured_value=10.3
molecule=CN(C)CCCNC(=O)c1ccc(-c2cc(O)c3ncccc3c2)cc1 display_unit=% measured_value=8.59
molecule=O=S(=O)(NCCNCC=Cc1ccc(Br)cc1)c1cccc2cnccc12 display_unit=% measured_value=33.3
molecule=COC(=O)Nc1ccc(-c2nc(N3CCOCC3)c3cnn(C4CCN(C(=O)OC)CC4)c3n2)cc1 display_unit=% measured_value=7.52
